Measurement Description: chemical genetic growth profiling, strain panel (AID 1159580);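 also: tested at 20 µM; growth read once vehicle control cultures reached saturation at 30 °C; 1 = growth at the plate median or of vehicle wells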
Measurement Parameters: S. cerevisiae deletion strains, growth OD, locus YPL106C, strain sse1, active compounds read low
The whole screen tested about 5,500 compounds, of which about 2,000 (36%) were called active. About 18% were inconclusive and are not listed. The list shows a part of the results.
Output 1 for records whose normalized growth is lower than 1, 0 for records at or above 1.

INSERT INTO assay_data (compound, label_value) VALUES
  ('CC(=O)OCC(=O)[C@@]12OC3(CCCC3)O[C@@H]1CC1C3CCC4=CC(=O)C=C[C@]4(C)[C@@]3(F)[C@@H](O)C[C@@]12C (stereo partly drawn)', 0),
  ('CC[C@H]1CN2CCc3cc(OC)c(OC)cc3C2C[C@@H]1CC1NCCc2cc(OC)c(OC)cc21 (stereo partly drawn)', 1),
  ('CC1(C)S[C@@H]2[C@H](NC(=O)[C@H](C(=O)O)c3cccs3)C(=O)N2[C@H]1C(=O)O', 0),
  ('CN1CCN(CC(=O)N2c3ccccc3C(=O)Nc3cccnc32)CC1', 0);

INPUT: Please determine if COc1ccc2c(c1)[C@]13CCCC[C@H]1[C@H](C2)N(C)CC3 is below 1 in terms of normalized growth.
OUTPUT: 1

INPUT: Could you please tell me whether normalized growth recorded for Cc1onc(-c2c(Cl)cccc2Cl)c1C(=O)N[C@@H]1C(=O)N2[C@@H]1SC(C)(C)[C@@H]2C(=O)O is less than 1?
OUTPUT: 1

INPUT: Hello, I'm reviewing records and need to know if normalized growth of CNCC[C@@H](Oc1ccccc1)c1ccccc1 is below 1. Could you check?
OUTPUT: 1

INPUT: Please check: normalized growth for NC[C@H]1O[C@H](O[C@H]2C(O[C@@H]3O[C@H](CO)[C@@H](O)[C@H]3O)[C@@H](O)[C@H](N)C[C@@H]2N)[C@H](N)[C@@H](O)[C@@H]1O (stereo partly drawn) , strictly under 1 or not?
OUTPUT: 1

INPUT: Record CC(=O)OCC(=O)[C@@]1(O)CCC2C3CCC4=CC(=O)CC[C@]4(C)C3[C@@H](O)C[C@@]21C (stereo partly drawn) : is its normalized growth strictly below 1?
OUTPUT: 0

INPUT: Threshold test, normalized growth < 1: CC(=O)Oc1cc2c(c(C)c1OC(C)=O)CC1OC13C2(C)CCC1(C)C2CC(C)(C(=O)O)CCC2(C)CCC13C (stereo not drawn)
OUTPUT: 0
